target: Ephrin type-A receptor 4 (Homo sapiens, UniProt P54764)
Sequence (P54764 whole entry): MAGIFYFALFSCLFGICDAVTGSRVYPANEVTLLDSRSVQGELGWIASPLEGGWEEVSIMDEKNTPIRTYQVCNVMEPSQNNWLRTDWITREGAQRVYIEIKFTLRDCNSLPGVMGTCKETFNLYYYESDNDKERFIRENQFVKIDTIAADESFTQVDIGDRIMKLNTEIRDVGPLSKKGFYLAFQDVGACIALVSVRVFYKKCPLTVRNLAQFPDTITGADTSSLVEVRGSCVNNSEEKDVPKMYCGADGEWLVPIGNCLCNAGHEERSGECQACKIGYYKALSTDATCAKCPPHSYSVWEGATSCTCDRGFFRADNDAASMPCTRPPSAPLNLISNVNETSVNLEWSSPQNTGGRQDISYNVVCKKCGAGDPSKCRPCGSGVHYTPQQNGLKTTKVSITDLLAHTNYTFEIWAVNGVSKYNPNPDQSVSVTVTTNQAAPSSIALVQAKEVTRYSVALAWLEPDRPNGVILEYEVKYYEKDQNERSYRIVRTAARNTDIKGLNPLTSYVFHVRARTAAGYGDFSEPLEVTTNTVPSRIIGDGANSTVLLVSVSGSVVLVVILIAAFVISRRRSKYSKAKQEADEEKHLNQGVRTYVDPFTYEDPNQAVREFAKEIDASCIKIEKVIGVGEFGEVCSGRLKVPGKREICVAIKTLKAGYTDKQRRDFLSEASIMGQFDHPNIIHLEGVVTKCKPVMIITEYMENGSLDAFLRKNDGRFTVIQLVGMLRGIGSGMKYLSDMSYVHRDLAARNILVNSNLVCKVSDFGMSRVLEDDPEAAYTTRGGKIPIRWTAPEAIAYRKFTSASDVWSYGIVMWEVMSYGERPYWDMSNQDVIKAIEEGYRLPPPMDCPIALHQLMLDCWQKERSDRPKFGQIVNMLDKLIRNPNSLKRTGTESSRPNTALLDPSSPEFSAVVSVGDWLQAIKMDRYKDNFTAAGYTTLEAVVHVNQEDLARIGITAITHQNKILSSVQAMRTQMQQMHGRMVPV
Assay Readout: pIC50
Lab note: report pIC50 as minus log10 of the concentration in molar units, number only.

Exercise: Endpoint output: pIC50 of C[C@H](CCC(=O)N[C@@H](Cc1c[nH]c2ccccc12)C(=O)O)[C@H]1CC[C@H]2[C@@H]3CC=C4C[C@@H](O)CC[C@]4(C)[C@H]3CC[C@]12C . Value?
Key: 5.42

* * *

Catalogue of solubility kinetic at 2 h readings, one per entry.
test: Kinetic solubility of the compound in NaCl solution at 25 deg C after 2 hrs by HPLC-ESI-MS/MS analysis; format: physicochemical; conditions: read-out: Kinetic_solubility
Expressed in µM, but write only the number.

{"columns": ["Line Notation", "Assay Readout", "Numeric Value"],
 "data": [
  ["C[C@H](CCC(=O)N[C@H](CC(=O)O)Cc1c[nH]c2ccccc12)[C@H]1CC[C@H]2[C@@H]3CC[C@@H]4C[C@H](O)CC[C@]4(C)[C@H]3CC[C@]12C", "solubility kinetic at 2 h", 31.8]
]}

Kindly consider the entry below.
Exercise: Please give the measured solubility kinetic at 2 h for this compound: C[C@H](CCC(=O)N[C@@H](Cc1c[nH]c2ccccc12)C(=O)O)[C@H]1CC[C@H]2[C@@H]3CC=C4C[C@@H](O)CC[C@]4(C)[C@H]3CC[C@]12C
Key: 31.5
